Quick reference: protein stability index of the listed items.
B1: SPACA3 (parent)
chain: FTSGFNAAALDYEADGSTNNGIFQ

# Variants of: B1
# method-notes: protein stability index of a GFP-peptide fusion (GPS, HEK-293T) (PSI 1-6); higher = more stable;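 further: lentivirally expressed fusions sorted by FACS into six bins by GFP to DsRed ratio, PSI derived from sequencing read proportions per bin multiplied by bin number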
# condition-label: c terminus: a fixed tail appended
Write the value as a bare number.

Please review the following examples before continuing.
[
  {
    "input-sequence": "FTSGFNAAALDNEADGSTNNGIFQ [Y12N]",
    "protein stability index": 2.2
  },
  {
    "input-sequence": "FTSGFNAAALDYEADGSTNNGIDQ [F23D]",
    "protein stability index": 2.5
  },
  {
    "input-sequence": "FTSGFSAAALDYEADGSTNNGIFQ [N6S]",
    "protein stability index": 1.85
  },
  {
    "input-sequence": "FTSGFNAAALDYEADGSTNSGIFQ [N20S]",
    "protein stability index": 2.15
  },
  {
    "input-sequence": "FTSGFNAAALDYEADGSTNNWIFQ [G21W]",
    "protein stability index": 1.58
  },
  {
    "input-sequence": "FTSGFNAAALDYEADGSTNNGIFG [Q24G]",
    "protein stability index": 2.36
  },
  {
    "input-sequence": "FTSGFNAAALDYEADGSTNNGIFS [Q24S]",
    "protein stability index": 1.85
  }
]

Moving on to another variant below.
Q: I would be grateful if you could share the reported protein stability index for FTSGFVAAALDYEADGSTNNGIFQ [N6V] .
Ans: 2.08
